- TGT: KHK (Homo sapiens (Human), UniProt P50053)
- Sequence (P50053 whole entry): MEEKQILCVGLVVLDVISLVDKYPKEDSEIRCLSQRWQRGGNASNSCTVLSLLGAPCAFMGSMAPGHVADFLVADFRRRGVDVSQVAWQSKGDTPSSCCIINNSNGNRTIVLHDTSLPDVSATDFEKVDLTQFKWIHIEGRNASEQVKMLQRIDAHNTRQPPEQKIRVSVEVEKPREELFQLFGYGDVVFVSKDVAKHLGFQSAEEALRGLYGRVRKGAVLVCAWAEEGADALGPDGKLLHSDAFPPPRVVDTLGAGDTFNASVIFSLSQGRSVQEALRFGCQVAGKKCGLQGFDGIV
Counter-ions that a name gives are not always drawn.
Simple rule here: IC50 less than 0.7 µM is true (1), otherwise false (0).

Prompt: Quick check: IC50 of CCc1nn(-c2ccccc2)c2nc(C3CCN(C4CCNC4)CC3)nc(O)c12 (centres unmarked) [Compound 94, hydrochloride] under 0.7 µM?
Response: false (0)

Prompt: Same question, CCc1nn(-c2ccccc2)c2cc(-c3ccc(N4CCNCC4)cc3)ccc12 [Compound 52, hydrochloride] this time
Response: false (0)

Prompt: Same question, CSc1nn(-c2ccccc2)c2cc(OCC3CCNCC3)ccc12 [Compound 107] this time
Response: true (1)

Prompt: Same question, CSc1nn(-c2ccccc2)c2cc(NC(=O)C3(F)CCNCC3)ccc12 [Compound 167] this time
Response: true (1)

Prompt: Same question, Cc1nn(-c2ccccc2)c2nc(C3CCN(C4CCNC4)CC3)nc(O)c12 (centres unmarked) [Compound 88, hydrochloride] this time
Response: false (0)

Prompt: Same question, COc1ccc(-n2nc(SC)c3ccc(C4=CCNCC4)cc32)cc1 [Compound 140] this time
Response: true (1)

Prompt: Same question, CSc1nn(-c2ccccc2)c2cc(NC(=O)CCN3CCNCC3)ccc12 [Compound 132] this time
Response: true (1)

----------
Parameter 'readout' = IC50; parameter 'system' = KHK (Homo sapiens (Human), UniProt P50053).
Structures can show the parent of a compound that is named as a salt.
Respond with the bare value in nM.

Prompt: I'd like to know its IC50. The compound in question is CSc1nn(-c2ccccc2)c2cc(C=CC3CCCNC3)ccc12 (centres unmarked)
Response: 790

Prompt: Same question, CSc1nn(-c2ccccc2)c2cc(C(=O)C3CCNCC3)ccc12 this time
Response: 670

Prompt: Same question, Cc1nn(-c2ccccc2)c2cc(N3CCN(C(C)C)CC3)ccc12 [Compound 70, formic acid salt] this time
Response: 14700

Prompt: Same question, CSc1nn(-c2ccccc2)c2cc(N3CCN(C(=O)C4CCCNC4)CC3)ccc12 (centres unmarked) [Compound 16, hydrochloride] this time
Response: 2890

Prompt: Same question, CSc1nn(-c2ccc(C)cc2)c2cc(C3=CCNCC3)ccc12 this time
Response: 40

Prompt: Same question, CCc1nn(-c2ccccc2)c2nc(C3CCNCC3)nc(O)c12 [Compound 91, hydrochloride] this time
Response: 2400

Prompt: Same question, Cc1nn(-c2ccccc2)c2cc(N3CCC(N)C3)ccc12 (centres unmarked) [Compound 72, formic acid salt] this time
Response: 680

Prompt: Same question, CCc1nn(-c2ccccc2)c2cc(-c3ccc(OC4CCNCC4)cc3)ccc12 [Compound 37, hydrochloride] this time
Response: 5870

Prompt: Same question, CSc1nn(-c2ccccc2)c2cc(NC(=O)CC3CCCCN3)ccc12 (centres unmarked) [Compound 3, hydrochloride] this time
Response: 860

Prompt: Same question, CSc1nn(-c2ccccc2)c2cc(NC(=O)NC3CCNC3)ccc12 (centres unmarked) [Compound 4, hydrochloride] this time
Response: 450

Prompt: Same question, COc1nn(-c2ccccc2)c2cc(N3CC(N4CCNCC4)C3)ccc12 [Compound 73, hydrochloride] this time
Response: 390

Prompt: Same question, CSc1nn(-c2cccc(C)c2)c2cc(N3CCNCC3)ccc12 this time
Response: 4120

Prompt: Same question, COc1nn(-c2ccccc2)c2cc(N3CCN(C4CCNCC4)CC3)ccc12 [Compound 76, hydrochloride] this time
Response: 1380

Prompt: Same question, CSc1nn(-c2ccccc2)c2cc(N3CCN(C(=O)C4CCCN4)CC3)ccc12 (centres unmarked) [Compound 33, hydrochloride] this time
Response: 5340

Prompt: Same question, Cc1nn(-c2ccccc2)c2nc(-c3ccc(N4CCNCC4)cc3)cc(O)c12 this time
Response: 2710

Prompt: Same question, CSc1nn(-c2ccccc2)c2cc(NC(=O)C3CNC3)ccc12 [Compound 2, hydrochloride] this time
Response: 220

----------
Where a name gives a salt, the structure may show the parent alone.
Parameter 'readout' = IC50; parameter 'system' = KHK (Homo sapiens (Human), UniProt P50053).
Respond with the bare value in nM.

Prompt: I'd like to know its IC50. The compound in question is CCc1nn(-c2ccccc2)c2cc(N3CCC(N4CCNCC4)CC3)ccc12 [Compound 36, hydrochloride]
Response: 890

Prompt: Same question, CSc1nn(-c2ccccc2)c2cc(C(=O)CC3CCCNC3)ccc12 (centres unmarked) this time
Response: 6620

Prompt: Same question, CSc1nn(-c2ccccc2)c2cc(NC(=O)C3CCCN3)ccc12 (centres unmarked) [Compound 13, hydrochloride] this time
Response: 260

Prompt: Same question, CSc1nn(-c2ccccc2)c2cc(CCC3CCNCC3)ccc12 this time
Response: 920

Prompt: Same question, CCc1nn(-c2ccccc2)c2nc(C3CCN(C4CCNCC4)CC3)nc(O)c12 [Compound 95, hydrochloride] this time
Response: 11500

Prompt: Same question, CCc1nn(-c2ccccc2)c2cc(N3CCN(C)CC3)ccc12 this time
Response: 4520

Prompt: Same question, CSc1nn(-c2ccccc2)c2cc(N3CCN(C(=O)C4CCNCC4)CC3)ccc12 [Compound 34, hydrochloride] this time
Response: 830

Prompt: Same question, CSc1nn(-c2ccccc2)c2cc(N3CCN(C(=O)C4CCCCN4)CC3)ccc12 (centres unmarked) this time
Response: 430

----------
Counter-ions that a name gives are not always drawn.
Parameter 'readout' = log10 IC50; parameter 'system' = KHK (Homo sapiens (Human), UniProt P50053).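 Also: primary screen measuring inhibition of KHK-catalysed conversion of D-fructose into fructose 1-phosphate.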
// units: nM (pre-log); metric: IC50; scale: log10

Prompt: I'd like to know its log10 IC50. The compound in question is Cc1nn(-c2ccccc2)c2nc(-c3ccc(NC4CCNCC4)cc3)cc(O)c12
Response: 2.95

Prompt: Same question, CSc1nn(-c2ccccc2)c2cc(NC(=O)NC3CCNCC3)ccc12 [Compound 7, hydrochloride] this time
Response: 2.85

Prompt: Same question, CCc1nn(-c2ccccc2)c2cc(N3CCNC(C)C3)ccc12 (stereo not drawn) this time
Response: 2.93

Prompt: Same question, COc1nn(-c2ccccc2)c2cc(-c3ccc(N4CCNCC4)cc3)ccc12 [Compound 78, hydrochloride] this time
Response: 3.65

Prompt: Same question, CCc1nn(-c2ccccc2)c2nc(-c3ccc(NC4CCNCC4)cc3)cc(O)c12 this time
Response: 3.24

Prompt: Same question, CCc1nn(-c2ccccc2)c2cc(N3CCNCC3)ccc12 this time
Response: 2.76

Prompt: Same question, Cc1nn(-c2ccccc2)c2nc(C3CCCN(C4CNC4)C3)nc(O)c12 (stereo not drawn) this time
Response: 3.87

Prompt: Same question, CCOc1cc(-c2ccc(N3CCNCC3)cc2)nc2c1c(CC)nn2-c1ccccc1 this time
Response: 3.16

Prompt: Same question, CCc1nn(-c2ccccc2)c2cc(N3CCN(c4ccncc4)CC3)ccc12 [Compound 47, hydrochloride] this time
Response: 3.55

Prompt: Same question, CSc1nn(-c2ccccc2)c2cc(NCCN3CCNCC3)ccc12 this time
Response: 2.95

Prompt: Same question, CCc1nn(-c2ccccc2)c2cc(N3CCC4(CCNC4)C3)ccc12 (stereo not drawn) [Compound 51, hydrochloride] this time
Response: 3.17

Prompt: Same question, CSc1nn(-c2ccccc2)c2cc(N3CC4CC3CN4)ccc12 (stereo not drawn) [Compound 10, hydrochloride] this time
Response: 2.85

Prompt: Same question, CSc1nn(-c2ccccc2)c2cc(N3CCN(C4CCNCC4)C3=O)ccc12 [Compound 26, hydrochloride] this time
Response: 3.17

----------
- TGT: KHK (Homo sapiens (Human), UniProt P50053)
Counter-ions that a name gives are not always drawn.
Exercise: for every item that follows, state its recorded IC50.
Respond with the bare value in nM.

Prompt: I'd like to know its IC50. The compound in question is CCc1nn(-c2ccccc2)c2cc(N3CCN(C4CCNC4)C3=O)ccc12 (centres unmarked) [Compound 48, hydrochloride]
Response: 2370

Prompt: Same question, CSc1nn(-c2ccccc2)c2cc(N3CCN(C4CCNC4)C3=O)ccc12 (centres unmarked) [Compound 25, hydrochloride] this time
Response: 460

Prompt: Same question, COc1nn(-c2ccccc2)c2cc(N3CCN(C4CNC4)CC3)ccc12 [Compound 74, hydrochloride] this time
Response: 5960

Prompt: Same question, CSc1nn(-c2cccc(F)c2)c2cc(C3=CCNCC3)ccc12 this time
Response: 40

Prompt: Same question, CCc1nn(-c2ccccc2)c2nc(C3CCN(C(=O)C4CCNCC4)CC3)nc(O)c12 [Compound 96, hydrochloride] this time
Response: 30000

----------
- TGT: KHK (Homo sapiens (Human), UniProt P50053)
pIC50: −log10 of the molar value.
READOUT: pIC50

Prompt: I'd like to know its pIC50. The compound in question is CSc1nn(-c2ccccc2)c2cc(C=Cn3cncn3)ccc12 [Compound 152]
Response: < 5.00

Prompt: Same question, CSc1nn(-c2ccccc2)c2cc(C=Cc3ccncc3)ccc12 [Compound 154] this time
Response: < 5.00

Prompt: Same question, CSc1nn(-c2ccccc2)c2cc(C(=O)c3ccc4nonc4c3)ccc12 [Compound 174] this time
Response: < 5.00
